# Experimental protocol: Validation screen for small molecules that induce DNA re-replication in SW480 colon adenocarcinoma cells (AID 504364)
# Run conditions: DNA re-replication phenotype (high-content imaging); series mostly up to 46.1 µM
Results filed as inconclusive are left out. Calls of active or inactive are those of the source. The call rests on the fitted dose curve; in most records, active means well fitted activation curve with a large enough effect; inconclusive means small, poorly fitted or top-dose-only effect; inactive means flat fitted curve, though single readings scatter.
Metric name: outcome

Cc1cccc(C)c1OCC(N)C(C)C (stereo not given): inactive
CCCCCCCC/C=C\CCCCCCCC(=O)NCCc1ccc(O)c(O)c1: inactive
O=c1[nH]ccc2c(O)cccc12: inactive
O=S(=O)(c1cccc2c(Cl)cccc12)N1CCCNCC1: inactive
Nc1ccc(-c2nc3ccc(-c4nc5ccc(N)cc5[nH]4)cc3[nH]2)cc1: inactive
C[N+](C)(C)CC=O: inactive

Q: Answer with the recorded outcome of "CC(N)=O" only.
Ans: inactive

Q: Answer with the recorded outcome of "[N-]=[N+]=Nc1ccc(C(=O)CSC[C@H](NC(=O)CC[C@H](N)C(=O)O)C(=O)NCC(=O)O)cc1" only.
Ans: inactive

Q: Answer with the recorded outcome of CCCCCCCCCC[Si](C)(C)CCC(=O)NC(Cc1ccc(C)cc1)c1ccccc1 (stereo not given) only.
Ans: inactive

Q: Answer with the recorded outcome of "CCCn1c(=O)c2[nH]c(-c3ccc(S(=O)(=O)O)cc3)nc2n(CCC)c1=O" only.
Ans: inactive

Q: Answer with the recorded outcome of C=CC1(C)CC(=O)C2(O)C(C)(O1)C(OC(C)=O)C(O)C1C(C)(C)CCC(O)C12C (stereo not given) only.
Ans: inactive

Q: Answer with the recorded outcome of "Cc1ccc([N+](=O)[O-])cc1S(=O)(=O)N(C)C" only.
Ans: inactive

Q: Answer with the recorded outcome of "OC1(c2ccc(Cl)cc2)CCN(Cc2c[nH]c3ccccc23)CC1" only.
Ans: inactive

Q: Answer with the recorded outcome of "CCN(CC)CCOC(=O)c1cc(Cl)c(N)cc1OC" only.
Ans: inactive

Q: Answer with the recorded outcome of "Cn1ccnc1" only.
Ans: inactive
